# credit: ChEMBL document CHEMBL1201861

# pIC50 per entry
test system: BALL-1; assay: cells; format: functional, cell-based; settings: Homo sapiens;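 further: growth inhibition of BALL-1 cells, read out with a cell viability assay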
Description: SANGER: Inhibition of human BALL-1 cell growth in a cell viability assay.
pIC50: −log10 of the molar value.

Use the examples below as a reference point.
>>> reported("CN(NC(=O)CC(=O)NN(C)C(=S)c1ccccc1)C(=S)c1ccccc1")
"< 6.70"
>>> reported("O=C(NCCCNc1nc(Nc2cccc(NC(=O)N3CCCC3)c2)ncc1I)c1cccs1")
"< 5.30"
>>> reported("NC(=O)c1ccc(N(C(N)=O)c2c(F)cccc2F)nc1-c1ccc(F)cc1F")
"< 5.70"
>>> reported("O=C1NC(=O)c2c1c(-c1ccccc1Cl)cc1[nH]c3ccc(O)cc3c21")
"< 5.70"
>>> reported("Cc1ccc(-n2nc(C(C)(C)C)cc2NC(=O)Nc2ccc(OCCN3CCOCC3)c3ccccc23)cc1")
"< 5.00"

[ask] Report measured pIC50; entry is `NC1(c2ccc(-c3nc4ccn5c(=O)[nH]nc5c4cc3-c3ccccc3)cc2)CCC1`
[reply] < 5.40

----------
system: WSU-NHL; assay: cells; assay type: functional, cell-based, Homo sapiens; conditions: Homo sapiens, WSU-NHL
Description: SANGER: Inhibition of human WSU-NHL cell growth in a cell viability assay.
READOUT: IC50

Use the examples below as a reference point.
>>> reported("O=S(=O)(O)c1ccc2cc(/N=N/c3cc(S(=O)(=O)O)c4cccnc4c3O)ccc2c1")
"> 16000 nM"
>>> reported("CCCCCCCCCCCC1=C(O)C(=O)C=C(O)C1=O [EMBELIN]")
"13600 nM"
>>> reported("CC(C)C[C@H](NC(=O)[C@H](Cc1ccccc1)NC(=O)c1cnccn1)B(O)O [BORTEZOMIB]")
"> 20 nM"
>>> reported("COc1ccc(N(C(=O)Oc2c(C)cccc2C)c2ccnc(Nc3ccc(N4CCN(C)CC4)cc3)n2)c(OC)c1")
"> 5120 nM"
>>> reported("Nc1ccccc1NC(=O)c1ccc(CNC(=O)OCc2cccnc2)cc1 [ENTINOSTAT]")
"> 5000 nM"
>>> reported("COc1ccc(-c2cc3nccn3c(Nc3ncccc3C(N)=O)n2)cc1OC")
"1380 nM"
>>> reported("Cc1ccc(NC(=O)c2ccc(CN3CCN(C)CC3)cc2)cc1Nc1nccc(-c2cccnc2)n1 [IMATINIB]")
"> 2000 nM"

Pending molecule:
[ask] Report measured IC50; entry is C/C(=C\c1csc(C)n1)[C@@H]1C[C@@H]2O[C@]2(C)CCC[C@H](C)[C@H](O)[C@@H](C)C(=O)C(C)(C)[C@@H](O)CC(=O)O1 [PATUPILONE]
[reply] 4.15 nM

----------
system: DSH1; assay: cells; format: functional, cell-based; conditions: Homo sapiens;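 further: growth inhibition of human DSH1 cells, measured with a cell viability readout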
Description: SANGER: Inhibition of human DSH1 cell growth in a cell viability assay.
# IC50 per entry

>>> reported("C/C(=C\\c1csc(C)n1)[C@@H]1C[C@@H]2O[C@]2(C)CCC[C@H](C)[C@H](O)[C@@H](C)C(=O)C(C)(C)[C@@H](O)CC(=O)O1")
"> 32 nM"
>>> reported("C[C@@H](Oc1cc(-c2cnn(C3CCNCC3)c2)cnc1N)c1c(Cl)ccc(F)c1Cl")
"> 2000 nM"
>>> reported("Cc1ccc(NC(=O)c2ccc(CN3CCN(C)CC3)cc2)cc1Nc1nccc(-c2cccnc2)n1")
"> 2000 nM"
>>> reported("COc1ccc(N(C(=O)Oc2c(C)cccc2C)c2ccnc(Nc3ccc(N4CCN(C)CC4)cc3)n2)c(OC)c1")
"> 5120 nM"

[ask] Report measured IC50; entry is `Cc1ccc(C(=O)Nc2ccc(CN3CCN(C)CC3)c(C(F)(F)F)c2)cc1C#Cc1cnc2cccnn12`
[reply] > 512 nM

[ask] Report measured IC50; entry is `O=C(NCCCNc1nc(Nc2cccc(NC(=O)N3CCCC3)c2)ncc1I)c1cccs1`
[reply] > 5000 nM

[ask] Report measured IC50; entry is `COc1ccc(-c2cc3nccn3c(Nc3ncccc3C(N)=O)n2)cc1OC`
[reply] > 8000 nM

[ask] Report measured IC50; entry is `CN(C)CCOc1ccc(-c2nc(-c3ccncc3)c(-c3ccc4c(c3)CC/C4=N\O)[nH]2)cc1`
[reply] > 5000 nM

[ask] Report measured IC50; entry is `CC(C)C[C@H](NC(=O)[C@H](Cc1ccccc1)NC(=O)c1cnccn1)B(O)O`
[reply] 0.48 nM

----------
tested on: OCUB-M; test: cells; type: functional, cell-based; details: Homo sapiens;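 further: growth inhibition of the cancer cell line, read out through a cell viability assay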
Description: SANGER: Inhibition of human OCUB-M cell growth in a cell viability assay.
pIC50: −log10 of the molar value.
READOUT: pIC50

Use the examples below as a reference point.
>>> reported("COc1ccc(N(C(=O)Oc2c(C)cccc2C)c2ccnc(Nc3ccc(N4CCN(C)CC4)cc3)n2)c(OC)c1")
"< 5.29"
>>> reported("C=CC(=O)N1CCCC(Nc2nc(Nc3ccc(N(C)C(=O)CC)cc3)nc3[nH]cnc23)C1 (centres undefined)")
5.68
>>> reported("NC(=O)Nc1cc(-c2cccc(F)c2)sc1C(=O)N[C@H]1CCCNC1")
"< 5.70"
>>> reported("OC[C@H](Cc1ccccc1)Nc1nc(Oc2ccc3c(c2)CCC3)nc2c1ncn2Cc1ccc(-c2ccccc2)cc1")
5.43

[ask] Report measured pIC50; entry is `C[C@@H](Oc1cc(-c2cnn(C3CCNCC3)c2)cnc1N)c1c(Cl)ccc(F)c1Cl`
[reply] < 5.70

[ask] Report measured pIC50; entry is `NC(=O)c1ccc(N(C(N)=O)c2c(F)cccc2F)nc1-c1ccc(F)cc1F`
[reply] < 5.70

[ask] Report measured pIC50; entry is `Nc1ccccc1NC(=O)c1ccc(CNC(=O)OCc2cccnc2)cc1`
[reply] 5.92

[ask] Report measured pIC50; entry is `O=C(NCCCNc1nc(Nc2cccc(NC(=O)N3CCCC3)c2)ncc1I)c1cccs1`
[reply] < 5.30

[ask] Report measured pIC50; entry is `Cc1ccc(C(=O)Nc2ccc(CN3CCN(C)CC3)c(C(F)(F)F)c2)cc1C#Cc1cnc2cccnn12`
[reply] < 6.29

----------
system: Becker; assay: cells; assay type: functional, cell-based, Homo sapiens; conditions: Homo sapiens, Becker
Description: SANGER: Inhibition of human Becker cell growth in a cell viability assay.
pIC50: −log10 of the molar value.
# pIC50 per entry

Use the examples below as a reference point.
>>> reported("Nc1ccccc1NC(=O)c1ccc(CNC(=O)OCc2cccnc2)cc1")
5.36
>>> reported("COc1ccc(-c2cc3nccn3c(Nc3ncccc3C(N)=O)n2)cc1OC")
"< 5.10"
>>> reported("OC[C@H](Cc1ccccc1)Nc1nc(Oc2ccc3c(c2)CCC3)nc2c1ncn2Cc1ccc(-c2ccccc2)cc1")
"< 4.99"

Pending compound:
[ask] Report measured pIC50; entry is `CCCCCCCCCCCC1=C(O)C(=O)C=C(O)C1=O`
[reply] 4.80

----------
system: KARPAS-299; assay: cells; type: functional, cell-based, Homo sapiens; conditions: Homo sapiens, KARPAS-299
Description: SANGER: Inhibition of human KARPAS-299 cell growth in a cell viability assay.
# IC50 per entry

Use the examples below as a reference point.
>>> reported("COc1ccc(-c2cc3nccn3c(Nc3ncccc3C(N)=O)n2)cc1OC")
"> 8 µM"
>>> reported("OC[C@H](Cc1ccccc1)Nc1nc(Oc2ccc3c(c2)CCC3)nc2c1ncn2Cc1ccc(-c2ccccc2)cc1")
"> 10.2 µM"
>>> reported("C=CC(=O)N1CCCC(Nc2nc(Nc3ccc(N(C)C(=O)CC)cc3)nc3[nH]cnc23)C1 (stereo unspecified)")
"> 10.2 µM"
>>> reported("CC1(C)CCC(c2ccc(Cl)cc2)=C(CN2CCN(c3ccc(C(=O)NS(=O)(=O)c4ccc(N[C@H](CCN5CCOCC5)CSc5ccccc5)c(S(=O)(=O)C(F)(F)F)c4)cc3)CC2)C1 [NAVITOCLAX]")
"> 2 µM"
>>> reported("Cc1ccc(C(=O)Nc2ccc(CN3CCN(C)CC3)c(C(F)(F)F)c2)cc1C#Cc1cnc2cccnn12 [PONATINIB]")
"> 0.512 µM"

Pending molecule:
[ask] Report measured IC50; entry is `O=S(=O)(O)c1ccc2cc(/N=N/c3cc(S(=O)(=O)O)c4cccnc4c3O)ccc2c1`
[reply] > 16 µM

----------
tested on: NCI-H1650; assay: cells; type: functional, cell-based, Homo sapiens; settings: Homo sapiens, NCI-H1650;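 further: growth inhibition of human NCI-H1650 cells measured by a cell viability assay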
Description: SANGER: Inhibition of human NCI-H1650 cell growth in a cell viability assay.
READOUT: IC50

>>> reported("NC(=O)c1ccc(N(C(N)=O)c2c(F)cccc2F)nc1-c1ccc(F)cc1F")
"> 2 µM"
>>> reported("O=C(NCCCNc1nc(Nc2cccc(NC(=O)N3CCCC3)c2)ncc1I)c1cccs1")
"> 5 µM"
>>> reported("CC1(C)CCC(c2ccc(Cl)cc2)=C(CN2CCN(c3ccc(C(=O)NS(=O)(=O)c4ccc(N[C@H](CCN5CCOCC5)CSc5ccccc5)c(S(=O)(=O)C(F)(F)F)c4)cc3)CC2)C1")
"> 2 µM"
>>> reported("NC1(c2ccc(-c3nc4ccn5c(=O)[nH]nc5c4cc3-c3ccccc3)cc2)CCC1")
"> 4 µM"
>>> reported("COc1ccc(N(C(=O)Oc2c(C)cccc2C)c2ccnc(Nc3ccc(N4CCN(C)CC4)cc3)n2)c(OC)c1")
"> 5.12 µM"

[ask] Report measured IC50; entry is `Cc1ccc(C(=O)Nc2ccc(CN3CCN(C)CC3)c(C(F)(F)F)c2)cc1C#Cc1cnc2cccnn12`
[reply] > 0.512 µM

[ask] Report measured IC50; entry is `CS(=O)(=O)N1CCN(Cc2cc3nc(-c4cccc5[nH]ncc45)nc(N4CCOCC4)c3s2)CC1`
[reply] > 4 µM
